The reported numbers originate from paper PMC3445454.

# Tested Target: HLA-DR DRB1*15:01 (Homo sapiens, UniProt P01903+P01911)
# Test Method Notes: biochemical
# Format: binding
# Reported Conditions: read-out: Binding capacity/IC50 (nM) DRB1*15:01
Endpoint Label: IC50 (nM)

INSERT INTO results (compound, experimental_value) VALUES
  ('CC[C@H](C)[C@H](NC(=O)[C@@H](NC(=O)[C@H](CCCCN)NC(=O)[C@@H](NC(=O)[C@@H]1CCCN1C(=O)[C@H](Cc1c[nH]c2ccccc12)NC(=O)[C@H](CCCNC(=N)N)NC(=O)CNC(=O)[C@H](C)NC(=O)[C@H](CC(C)C)NC(=O)[C@H](CCCCN)NC(=O)[C@H](CC(C)C)NC(=O)[C@@H](NC(=O)[C@H](Cc1ccccc1)NC(=O)[C@H](Cc1ccc(O)cc1)NC(=O)[C@H](C)NC(=O)[C@@H](NC(=O)[C@@H](N)CCC(=O)O)[C@@H](C)O)[C@@H](C)CC)C(C)C)C(C)C)C(N)=O [integrase(96-113)]', 284),
  ('CC[C@H](C)[C@H](NC(=O)[C@@H]1CCCN1C(=O)[C@H](CCC(=O)O)NC(=O)[C@@H](N)CCCCN)C(=O)N[C@H](C(=O)NCC(=O)N[C@@H](C)C(=O)N[C@@H](CCC(=O)O)C(=O)N[C@H](C(=O)N[C@@H](Cc1ccccc1)C(=O)N[C@@H](Cc1ccc(O)cc1)C(=O)N[C@H](C(=O)N[C@@H](CC(=O)O)C(=O)NCC(=O)N[C@@H](C)C(N)=O)C(C)C)[C@@H](C)O)C(C)C [RT(431-445)]', 230);

---

Recorded pIC50 values for a group of substances are listed next.
# Tested Target: HLA-DR DRB1*12:01 (Homo sapiens, UniProt P01903+P01911, A100R/A169T/D57E/D86V/F55L/H45Y/K41T/L162R/M171V/P40S/Q125H/Q178H/Q39Y/Q99D/R42G/S66L/T262R/V114A/V67L/W38E/Y59H/Y61H/Y89S)
# Test Method Notes: biochemical
# Format: binding
pIC50: −log10 of the molar value. Ends that are not written are not given here.
Endpoint Label: pIC50

INSERT INTO measurements (substance, readout_relation, experimental_value) VALUES
  ('EAVRHFPRPWLHGL-NH2 [vpr(29-42)]', '<', 4.52),
  ('VGSLQYLALTALITPKK-NH2 [vif(142-158)]', '=', 5.78),
  ('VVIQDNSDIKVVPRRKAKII-NH2 [integrase(249-268)]', '=', 5.64);

---

# Tested Target: HLA-DP DPA1*01:03/DPB1*04:01 (Homo sapiens, UniProt P04440+P20036)
# Test Method Notes: biochemical
# Assay type: binding
Ends that are not written are not given here.
Endpoint Label: IC50 (µM)

INSERT INTO measurements (substance, unit_descriptor, experimental_value) VALUES
  ('DEELLKAVRIIKILYQSNP-NH2 [rev(9-27)]', 'µM', 0.637),
  ('LNKIVRMYSPVSILDI-NH2 [p24(138-153)]', 'µM', 0.047),
  ('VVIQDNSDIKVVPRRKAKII-NH2 [integrase(249-268)]', 'µM', 9.12),
  ('EAVRHFPRPWLHGL-NH2 [vpr(29-42)]', 'µM', 17);
